Sourced from patent US8785443B2

# assay.comment: pH 8.0 buffer stability
# Type: physicochemical
# setup.conditions: 150 mM NaH2PO4 buffer pH 8.0, 60 min, 37° C.
pH 8.0: Percent DMF or prodrug remaining after 60 minutes values, listed per item
Please state the figure in %; there is no need to write the unit.

// worked examples, pH 8.0: Percent DMF or prodrug remaining after 60 minutes included
compound: CCCCNC(=O)COC(=O)/C=C/C(=O)OC [Compound 4]
reported.value: 40
--
compound: COC(=O)/C=C/C(=O)OCC(=O)N(C)OC [Compound 10]
reported.value: 42
--
compound: COC(=O)/C=C/C(=O)OCC(=O)N(C)C [Compound 9]
reported.value: 47
--
compound: COC(=O)/C=C/C(=O)OCC(=O)N1CCOCC1 [Compound 3]
reported.value: 53
--
compound: COCCNC(=O)COC(=O)/C=C/C(=O)OC [Compound 5]
reported.value: 53
--
compound: COC(=O)/C=C/C(=O)OCC(=O)NCc1ccccc1 [Compound 2]
reported.value: 17

Prompt: Name the recorded pH 8.0: Percent DMF or prodrug remaining after 60 minutes of the item CCN(CC)C(=O)COC(=O)/C=C/C(=O)OC [Compound 1] in your answer.
Completion: 63

* * *

# assay.comment: Enzymatic stability of prodrug in rat colonic wash
# Assay type: in vitro ADME
# setup.conditions: pH 7.4; rat colonic wash undiluted, 37° C.; read-out: T1/2 Parent Prodrug Cleavage (min) rColonic Wash
half-life at 40 µM values, listed per item

compound: COC(=O)/C=C/C(=O)OCC(=O)N(C)OC [Compound 10]
half-life at 40 µM: > 60 min
--
compound: COCCNC(=O)COC(=O)/C=C/C(=O)OC [Compound 5]
half-life at 40 µM: > 60 min
--
compound: CCN(CC)C(=O)COC(=O)/C=C/C(=O)OC [Compound 1]
half-life at 40 µM: > 60 min

Read the next record carefully.
Prompt: Name the recorded half-life at 40 µM of the item CCCCNC(=O)COC(=O)/C=C/C(=O)OC [Compound 4] in your answer.
Completion: 33 min

* * *

# assay.comment: Enzymatic stability of prodrug in rat plasma
# Type: in vitro ADME
# setup.conditions: 37° C., read-out: T1/2 Parent Prodrug Cleavage (min) rPlasma
half-life at 40 µM values, listed per item
Please state the figure in min; there is no need to write the unit.

// worked examples, half-life at 40 µM included
smiles.repr: CCCCNC(=O)COC(=O)/C=C/C(=O)OC
unit.label: min
half-life at 40 µM: 1
--
smiles.repr: COC(=O)/C=C/C(=O)OCC(=O)N(C)OC
unit.label: min
half-life at 40 µM: 1
--
smiles.repr: COC(=O)/C=C/C(=O)OCC(=O)N1CCOCC1
unit.label: min
half-life at 40 µM: 1

Read the next record carefully.
Prompt: Name the recorded half-life at 40 µM of the item `COC(=O)/C=C/C(=O)OCC(=O)N(C)C` in your answer.
Completion: 1

* * *

half-life at 40 µM values, listed per item
# assay.comment: Enzymatic stability of prodrug in CaCo2 S9 homogenate
# Assay type: in vitro ADME
# setup.conditions: human, Caco-2 cell S9 homogenate; CaCo2 S9 0.5 mg/mL, 0.1M Tris pH 7.4, 37° C.; read-out: T1/2 Parent Prodrug Cleavage (min) CaCo2
Please state the figure in min; there is no need to write the unit.

// worked examples, half-life at 40 µM included
molecule: COC(=O)/C=C/C(=O)OCC(=O)N1CCOCC1 [Compound 3]
reported.value: 56
--
molecule: COC(=O)/C=C/C(=O)OCC(=O)N(C)C [Compound 9]
reported.value: 8

Read the next record carefully.
Prompt: Name the recorded half-life at 40 µM of the item COC(=O)/C=C/C(=O)OCC(=O)NCc1ccccc1 [Compound 2] in your answer.
Completion: 4

* * *

half-life at 40 µM values, listed per item
# assay.comment: Enzymatic stability of prodrug in rat colonic wash
# Type: in vitro ADME
# setup.conditions: pH 7.4; rat colonic wash undiluted, 37° C.; read-out: T1/2 Parent Prodrug Cleavage (min) rColonic Wash
# Procedure: To prepare the rat colonic wash, the colon between the ceacum and rectum was resected from a euthanized rat. […] The enzymatic stability assays for prodrug in CaCo2 S9, rat liver S9, rat plasma, pig pancreatin, and rat colonic was were performed using the following procedure. […] Samples were analyzed using LC/MS/MS to determine the concentrations of prodrug and parent drug. […]

smiles.repr: COC(=O)/C=C/C(=O)OCC(=O)NCc1ccccc1
half-life at 40 µM: 25 min

smiles.repr: COC(=O)/C=C/C(=O)OCC(=O)N1CCOCC1
half-life at 40 µM: > 60 min

Read the next record carefully.
Prompt: Name the recorded half-life at 40 µM of the item `COC(=O)/C=C/C(=O)OCC(=O)N(C)C` in your answer.
Completion: > 60 min

* * *

# assay.comment: Enzymatic stability of prodrug in rat plasma
# Assay type: in vitro ADME
# setup.conditions: 37° C., read-out: T1/2 Parent Prodrug Cleavage (min) rPlasma
# Protocol: Rat plasma (Pel-Freez® Biologicals, Rogers, Ark.; 36150) was used as obtained from the supplier. The enzymatic stability assays for prodrug in CaCo2 S9, rat liver S9, rat plasma, pig pancreatin, and rat colonic was were performed using the following procedure. Ninety (90) μL of lysate is aliquoted to designated tubes on a cluster plates. The lysate was preincubated for 10 min at 37° C. […] Samples were analyzed using LC/MS/MS to determine the concentrations of prodrug and parent drug. […]
half-life at 40 µM values, listed per item
Please state the figure in min; there is no need to write the unit.

// worked examples, half-life at 40 µM included
smiles.repr: COCCNC(=O)COC(=O)/C=C/C(=O)OC
half-life at 40 µM, min: 2

smiles.repr: COC(=O)/C=C/C(=O)OCC(=O)NCc1ccccc1
half-life at 40 µM, min: 9

Read the next record carefully.
Prompt: Name the recorded half-life at 40 µM of the item `CCN(CC)C(=O)COC(=O)/C=C/C(=O)OC` in your answer.
Completion: 1
